Below, each entry is listed with its recorded pIC50.
target entity: lipoxygenase
protocol: inhibition of lipoxygenase, enzyme assay according to the method of Blackwell and Flower
pIC50: −log10 of the molar value.

{"columns": ["molecule", "property name", "reported"],
 "data": [
  ["Oc1ccccc1C=NC1=NN(c2ccc(Br)c(C(F)(F)F)c2)CC1 [Example 11]", "pIC50", "< 5.00"],
  ["CC(C)(C)c1cccc(N2CCC(N)=N2)c1 [Example 13, 3-Amino-1-(3-t-butylphenyl)-2-pyrazoline]", "pIC50", "> 6.00"],
  ["O=C(O)CCCCOc1cccc(O)c1C=NC1=NN(c2cccc(C(F)(F)F)c2)CC1 [Example 1]", "pIC50", "4.70 to 5.00"],
  ["Oc1ccccc1C=NC1=NN(c2cccc(C(F)(F)F)c2)CC1 [Example 4]", "pIC50", "~5.52"],
  ["FC(F)(F)c1cccc(N2CCC(N=Cc3cccc4ccccc34)=N2)c1 [Example 7]", "pIC50", 5.22]
]}

**Query** Answer with the recorded pIC50 of FC(F)(F)c1cccc(N2CCC(N=Cc3ccc[nH]3)=N2)c1 [Example 3] only.
**Result** 6.00

**Query** Answer with the recorded pIC50 for the molecule listed here: COc1ccc(C=NC2=NN(c3ccc(Br)c(C(F)(F)F)c3)CC2)cc1 [Example 12]
**Result** ~6.00

**Query** Supply recorded pIC50 for CC1CN(c2cccc(C(F)(F)F)c2)N=C1N=Cc1ccccc1O (centres unmarked) [Example 18] here.
**Result** ~6.00

**Query** Please indicate pIC50 recorded for Cc1ccc(C=NC2=NN(c3ccc4ccccc4c3)CC2)cc1 [Example 8]
**Result** 4.92

**Query** Return pIC50 for the following molecule: FC(F)(F)c1cccc(N2CCC(N=Cc3ccccn3)=N2)c1 [Example 2]
**Result** ~5.52

**Query** Quickly give me recorded pIC50 for FC(F)(F)c1cccc(N2CCC(N=Cc3ccccc3)=N2)c1 [Example 15]
**Result** > 6.00

* * *

target entity: cyclo-oxygenase
Sequence (P23219 24-599): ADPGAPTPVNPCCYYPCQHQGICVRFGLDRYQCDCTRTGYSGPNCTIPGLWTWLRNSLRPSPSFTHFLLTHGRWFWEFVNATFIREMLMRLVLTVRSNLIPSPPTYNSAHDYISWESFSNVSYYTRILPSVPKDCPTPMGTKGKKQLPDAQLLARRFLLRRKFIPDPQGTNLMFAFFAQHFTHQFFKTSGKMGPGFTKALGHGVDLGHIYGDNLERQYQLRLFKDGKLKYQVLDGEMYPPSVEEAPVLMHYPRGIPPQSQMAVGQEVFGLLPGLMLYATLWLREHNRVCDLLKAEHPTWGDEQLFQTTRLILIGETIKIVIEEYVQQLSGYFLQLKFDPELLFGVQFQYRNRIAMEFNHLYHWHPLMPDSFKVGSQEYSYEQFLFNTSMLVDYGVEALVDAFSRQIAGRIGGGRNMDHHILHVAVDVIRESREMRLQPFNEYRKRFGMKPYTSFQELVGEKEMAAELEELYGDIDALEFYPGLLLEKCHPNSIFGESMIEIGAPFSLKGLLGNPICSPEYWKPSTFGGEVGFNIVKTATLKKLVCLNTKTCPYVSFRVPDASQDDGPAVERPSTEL
protocol: inhibition of cyclo-oxygenase, enzyme assay according to the method of Blackwell and Flower
Type: biochemical
Some molecules, each annotated with its measured pIC50.
Expect pIC50 as a plain number equal to -log10 of the molar concentration.

{"columns": ["molecule", "pIC50"],
 "data": [
  ["Cc1ccc(C=NC2=NN(c3ccc4ccccc4c3)CC2)cc1 [Example 8]", 5.30]
]}

**Query** Item FC(F)(F)c1cccc(N2CCC(N=Cc3cccc4ccccc34)=N2)c1 [Example 7] : provide pIC50
**Result** 5.00

**Query** Given FC(F)(F)c1cccc(N2CCC(N=Cc3ccccn3)=N2)c1 [Example 2] , respond with its pIC50.
**Result** 6.00

* * *

target entity: cyclo-oxygenase
protocol: inhibition of cyclo-oxygenase, enzyme assay according to the method of Blackwell and Flower
Each record here notes measured IC50.

A selection of reference data follows.
{"columns": ["record smiles", "target entity", "reported"],
 "data": [
  ["FC(F)(F)c1cccc(N2CCC(N=Cc3ccccc3)=N2)c1", "cyclo-oxygenase", "~3 µM"],
  ["O=C(O)CCCCOc1cccc(O)c1C=NC1=NN(c2cccc(C(F)(F)F)c2)CC1", "cyclo-oxygenase", "< 3 µM"],
  ["Oc1ccccc1C=NC1=NN(c2cccc(C(F)(F)F)c2)CC1", "cyclo-oxygenase", "~3 µM"],
  ["CC(C)(C)c1cccc(N2CCC(N)=N2)c1", "cyclo-oxygenase", "< 1 µM"],
  ["Oc1ccccc1C=NC1=NN(c2ccc(Br)c(C(F)(F)F)c2)CC1", "cyclo-oxygenase", "~5 µM"]
]}

Would you kindly look at the next entry?
**Query** Name the recorded IC50 of the molecule listed here: FC(F)(F)c1cccc(N2CCC(N=Cc3ccc[nH]3)=N2)c1
**Result** < 1 µM

Data credit: patent US4572913A
